Read-out: Macrophage colony-stimulating factor (MCSF), CSF1 (gene 1435)
Assay: BSK_CASM3C_MCSF: BioMAP Diversity Plus: CASM3C Assay for Macrophage colony-stimulating factor (MCSF) Biomarker Activity (AID 2283044);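 also: M-CSF protein amount quantified by ELISA after 24 h exposure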
Conditions: primary human coronary artery smooth muscle cells; actives raise or lower the signal
Active and inactive are the calls of the source. The calls were made as follows: active = hit-call score of the fitted dose curve at least 0.9, where 1 is the maximum; inactive = score below 0.9.
Test Readout: outcome

Answered cases to consult:
- Molecule: "FC(F)(F)C(F)(F)C(F)(F)C(F)(F)C(F)(F)C(F)(F)CCI"
  Meas Value: "inactive"
- Molecule: "COC(=O)c1ccc(O)cc1"
  Meas Value: "inactive"
- Molecule: "Nc1ccc(S(=O)(=O)c2ccc(N)cc2)cc1"
  Meas Value: "inactive"
- Molecule: "Cc1nc(C)nc(N2C[C@@H](C)N(c3ccnc([C@@H](C)O)n3)[C@@H](C)C2)n1"
  Meas Value: "inactive"

Task item: // Input: CC(=O)C(C)=CC1C(C)=CCCC1(C)C (centres undefined) . Output its outcome only.
Reply: inactive

Task item: // Input: NCCO . Output its outcome only.
Reply: inactive

====

Read-out: catalase (CAT), CAT (gene 847)
Test: LTEA_HepaRG_CAT: Life Technologies and Expression Analysis (LTEA) Assay for catalase (CAT) using HepaRG (AID 2283452)
Settings: mRNA level, 48 h; actives raise or lower the signal
The source made the active and inactive calls. The calls were made as follows: active = hit-call score of the fitted dose curve at least 0.9, where 1 is the maximum; inactive = score below 0.9.
Please answer using one outcome listed in True for active, False for inactive

- Compound: "COCCOC[C@H](CC1(C(=O)NC2CCC(C(=O)O)CC2)CCCC1)C(=O)Oc1ccc2c(c1)CCC2 (stereo partly drawn)"
  Qualitative Label: "False"
- Compound: "NS(=O)(=O)c1cc2c(cc1Cl)NCNS2(=O)=O"
  Qualitative Label: "False"

Alright, here's another compound for you.
Task item: # outcome recorded in this test, key = Cc1oc(-c2ccccc2)nc1CCOc1cccc2c1ccn2CCC(=O)O
Reply: True

====

Target: Oxysterols receptor LXR-alpha (Homo sapiens)
Test: ATG_LXRa_TRANS: Attagene TRANS-FACTORIAL HepG2 Assay for human Liver X Receptor alpha (LXRa) (AID 2282980)
Conditions: HepG2 Attagene TRANS reporter, LXRa transactivation
Inconclusive results are not listed. Activity calls are given as the source filed them. The calls were made as follows: active = hit-call score of the fitted dose curve at least 0.9, where 1 is the maximum; inconclusive = response in the unintended direction; inactive = score below 0.9.
Please answer using one outcome listed in active, inactive

- Structure: "CC(=O)Oc1ccccc1C(=O)O"
  Target Under Test: "Oxysterols receptor LXR-alpha (Homo sapiens)"
  Qualitative Label: "active"
- Structure: "CN1CCCC1=O"
  Target Under Test: "Oxysterols receptor LXR-alpha (Homo sapiens)"
  Qualitative Label: "inactive"
- Structure: "c1cc(-c2ccncc2)ccn1"
  Target Under Test: "Oxysterols receptor LXR-alpha (Homo sapiens)"
  Qualitative Label: "inactive"
- Structure: "COc1cc(-c2nc(NC(=O)c3cc4cc(C)cc(C)c4n3CC(=O)O)sc2CCC2CCCCC2)c(OC)cc1Cl"
  Target Under Test: "Oxysterols receptor LXR-alpha (Homo sapiens)"
  Qualitative Label: "inactive"
- Structure: "O=[N+]([O-])C(CO)(CO)CO"
  Target Under Test: "Oxysterols receptor LXR-alpha (Homo sapiens)"
  Qualitative Label: "inactive"

Task item: # outcome recorded in this test, key = COCCOCCOC
Reply: inactive

Task item: # outcome recorded in this test, key = NCC1(Cc2noc(=O)[nH]2)CCCCC1
Reply: inactive

Task item: # outcome recorded in this test, key = CCCCCCOCCO
Reply: inactive

====

Assay: ATG_ERE_CIS: Attagene CIS-FACTORIAL HepG2 Assay for Estrogen Response Element (ERE) (AID 2282940)
Conditions: HepG2 ERE cis-reporter, Attagene RNA transcript; actives raise or lower the signal
Active and inactive are the calls of the source. How the source made its calls: active means hit-call score of the fitted dose curve at least 0.9, where 1 is the maximum; inactive means score below 0.9.
Please answer using one outcome listed in y = active, n = inactive

- Molecule: "Cc1oc(-c2ccccc2)nc1CCOc1cccc2c1ccn2CCC(=O)O"
  Qualitative Label: "y"
- Molecule: "CCCCC(CC)COC(=O)CC(C(=O)OCC(CC)CCCC)S(=O)(=O)O (stereo unspecified)"
  Qualitative Label: "n"
- Molecule: "OC[C@@H](O)[C@@H](O)[C@H](O)[C@H](O)CO"
  Qualitative Label: "n"
- Molecule: "NCCO"
  Qualitative Label: "n"
- Molecule: "C1CCC(SSC2CCCCC2)CC1"
  Qualitative Label: "y"
- Molecule: "Cc1nc(-c2ccc3c(c2)CCN(CCC2CCC(NC(=O)/C=C/c4ccc(F)cc4)CC2)CC3)no1 (stereo unspecified)"
  Qualitative Label: "n"
- Molecule: "COc1ccc2c(c1)c(CC(=O)O)c(C)n2C(=O)c1ccc(Cl)cc1"
  Qualitative Label: "n"
- Molecule: "CCNc1cccc(C)c1"
  Qualitative Label: "n"

Task item: # outcome recorded in this test, key = CCOC(=O)C(C)(C)Oc1ccc(Cl)cc1
Reply: n

Task item: # outcome recorded in this test, key = CCCc1cc(=O)[nH]c(=S)[nH]1
Reply: y

Task item: # outcome recorded in this test, key = c1cc(-c2ccncc2)ccn1
Reply: n

Task item: # outcome recorded in this test, key = NCC1(Cc2noc(=O)[nH]2)CCCCC1
Reply: n

Task item: # outcome recorded in this test, key = CC=Cc1ccc(O)c(OC)c1
Reply: n

====

Biological target: Peroxisome proliferator-activated receptor gamma (Homo sapiens) (UniProt P37231)
Sequence (P37231 whole entry, looked up): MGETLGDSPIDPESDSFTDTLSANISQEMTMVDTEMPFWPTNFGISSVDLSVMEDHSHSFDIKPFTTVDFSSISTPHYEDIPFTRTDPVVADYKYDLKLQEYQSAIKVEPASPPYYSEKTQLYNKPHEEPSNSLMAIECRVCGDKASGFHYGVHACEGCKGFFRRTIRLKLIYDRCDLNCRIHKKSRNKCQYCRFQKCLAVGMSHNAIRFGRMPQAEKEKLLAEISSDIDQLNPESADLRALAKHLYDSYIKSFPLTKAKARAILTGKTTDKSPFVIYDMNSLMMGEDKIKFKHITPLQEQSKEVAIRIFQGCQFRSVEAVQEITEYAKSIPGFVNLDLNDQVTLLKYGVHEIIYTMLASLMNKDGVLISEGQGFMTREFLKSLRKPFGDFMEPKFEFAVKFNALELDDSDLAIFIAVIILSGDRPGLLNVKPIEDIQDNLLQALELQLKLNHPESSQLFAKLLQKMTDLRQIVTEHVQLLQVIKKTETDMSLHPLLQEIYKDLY
Test: OT_PPARg_PPARgSRC1_1440: Odyssey Thera (OT) 24-hour Protein-Complementation Assay for Peroxisome Proliferator-activated Receptor Gamma/ SRC-1 Co-activator (AID 2283388);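 also: nuclear to cytoplasmic ratio of reconstituted Venus YFP fluorescence in fixed imaged cells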
The source made the active and inactive calls. The calls were made as follows: active = hit-call score of the fitted dose curve at least 0.9, where 1 is the maximum; inconclusive = response in the unintended direction; inactive = score below 0.9.
Test Readout: outcome

Answered cases to consult:
- Compound: "Cc1c(C(=O)O)c(O)cc2c1C(=O)c1c(O)c([C@@H]3O[C@H](CO)[C@@H](O)[C@H](O)[C@H]3O)c(O)c(O)c1C2=O"
  Meas Value: "inactive"
- Compound: "c1cc(-c2ccncc2)ccn1"
  Meas Value: "inactive"
- Compound: "CN[C@H]1CC[C@@H](c2ccc(Cl)c(Cl)c2)c2ccc(S(N)(=O)=O)cc21"
  Meas Value: "inactive"
- Compound: "Cc1ccc(C(C)C)c(O)c1"
  Meas Value: "inactive"

Task item: // Input: Nc1ccc(S(=O)(=O)c2ccc(N)cc2)cc1 . Output its outcome only.
Reply: inactive

====

Read-out: growth arrest and DNA damage 45 (GADD45G), GADD45G (gene 10912)
Assay: LTEA_HepaRG_GADD45G: Life Technologies and Expression Analysis (LTEA) Assay for growth arrest and DNA damage 45 (GADD45G) using HepaRG (AID 2283499)
Settings: mRNA level, 48 h; actives raise or lower the signal
Calls of active or inactive are those of the source. How the source made its calls: active means hit-call score of the fitted dose curve at least 0.9, where 1 is the maximum; inactive means score below 0.9.
Test Readout: AC50

- Compound: "CC(CO)OC(C)CO (configuration not stated) (tested in a mixture with another compound)"
  AC50: "inactive"
- Compound: "NCCO"
  AC50: "inactive"
- Compound: "CCCCCCC(=O)OCC"
  AC50: "inactive"
- Compound: "CCCCC(CC)COC(=O)CC(C(=O)OCC(CC)CCCC)S(=O)(=O)O (configuration not stated)"
  AC50: "87 µM (active)"
- Compound: "CN1CCN(Cc2cc(-c3ccc4[nH]c(=O)oc4c3)co2)[C@@H](c2ccc(F)cc2)C1"
  AC50: "71.9 µM (active)"
- Compound: "CCOC(=O)CCC(=O)OCC"
  AC50: "inactive"
- Compound: "CC1(C)CC(N=C=O)CC(C)(CN=C=O)C1 (configuration not stated)"
  AC50: "inactive"
- Compound: "CN[C@H]1CC[C@@H](c2ccc(Cl)c(Cl)c2)c2ccc(S(N)(=O)=O)cc21"
  AC50: "71.1 µM (active)"
- Compound: "CCCCCCOCCO"
  AC50: "inactive"
- Compound: "COc1cc(-c2nc(NC(=O)c3cc4cc(C)cc(C)c4n3CC(=O)O)sc2CCC2CCCCC2)c(OC)cc1Cl"
  AC50: "3.17 µM (active)"

Task item: // Input: CCCCCCCCCCCCCCCC . Output its AC50 only.
Reply: inactive

Task item: // Input: NC(=O)Cn1c(=O)cc(CCN2CCN(c3nccc4sccc34)CC2)c2ccc(F)cc21 . Output its AC50 only.
Reply: 83.8 µM (active)

====

Test system: Brachyury (BRA) Protein Expression, TBXT (gene 6862)
Assay: CCTE_Deisenroth_DEVTOX-GLR_Endo_BRA: CCTE's DevTox GLR-Endo Assay Evaluation of Brachyury (BRA) Protein Expression, Deisenroth Lab (AID 2284417)
The source made the active and inactive calls. How the source made its calls: active means hit-call score of the fitted dose curve at least 0.9, where 1 is the maximum; inactive means score below 0.9.
Please answer using one outcome listed in active, inactive

Reference set (3 entries):
- Structure: "CC(=O)Oc1ccccc1C(=O)O"
  Target Under Test: "Brachyury (BRA) Protein Expression, TBXT (gene 6862)"
  Qualitative Label: "inactive"
- Structure: "COc1cccc2c1C(=O)c1c(O)c3c(c(O)c1C2=O)C[C@@](O)(C(=O)CO)C[C@@H]3O[C@H]1C[C@H](N)[C@H](O)[C@H](C)O1"
  Target Under Test: "Brachyury (BRA) Protein Expression, TBXT (gene 6862)"
  Qualitative Label: "active"
- Structure: "CC1=C(/C=C/C(C)=C/C=C/C(C)=C/CO)C(C)(C)CCC1"
  Target Under Test: "Brachyury (BRA) Protein Expression, TBXT (gene 6862)"
  Qualitative Label: "active"

Alright, here's another molecule for you.
Task item: # outcome recorded in this test, key = O=c1[nH]cc(F)c(=O)[nH]1
Reply: active
